meta.source: patent US20220073604A1

# ASSAYED SYSTEM: T1, bacterially produced human IL-6 (human, UniProt P05231 30-212)
# T1 construct: also called bactIL-6; prokaryotic IL-6
# ASSAY EXPLANATION: SPR; purified Fab; IL-6 coated on CM5 chip;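 note: dissociation rate taken from the wash phase, association rate fitted over the injection phase with analyte concentration and dissociation rate as inputs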
MEASURED ENDPOINT: koff

- BINDER: "Fab 17F10 (Fab, V domains shown, Fab; also called 17F10 pur Fab 68 nM) VH: EVQLQESGPGLVKPSQTLSLTCTVSGGSIATSYYAWSWIRQPPGKGLEWMGVIDYDGDTYYKPSLKSRTSISRDTSKNQFSLQLSSVTPEDTAVYYCARAGLGDSYYLGTYYAMDYWGKGTLVTVSS VL: QAGLTQPPSVSGSPGKTVTISCAGTTSDVGTGNFVSWYQQLPGMAPKLLIYDVNKRASGIADRFSGSKSGNTASLTISGLQSEDEADYYCASYRSLNNVVFGGGTHLTVLG"
  RESULT: "0.0012 s⁻¹"
